Origin of values: ChEMBL document CHEMBL3988442

biological target: Protein translocase subunit SecA (Escherichia coli (strain K12)) (UniProt P10408); assay: Assay to Identify E. coli SecA ATPase Inhibitors; format: functional; set-up: scale not given: direction of the effect not stated beside the values; details: 30 µM
Sequence (P10408 whole entry): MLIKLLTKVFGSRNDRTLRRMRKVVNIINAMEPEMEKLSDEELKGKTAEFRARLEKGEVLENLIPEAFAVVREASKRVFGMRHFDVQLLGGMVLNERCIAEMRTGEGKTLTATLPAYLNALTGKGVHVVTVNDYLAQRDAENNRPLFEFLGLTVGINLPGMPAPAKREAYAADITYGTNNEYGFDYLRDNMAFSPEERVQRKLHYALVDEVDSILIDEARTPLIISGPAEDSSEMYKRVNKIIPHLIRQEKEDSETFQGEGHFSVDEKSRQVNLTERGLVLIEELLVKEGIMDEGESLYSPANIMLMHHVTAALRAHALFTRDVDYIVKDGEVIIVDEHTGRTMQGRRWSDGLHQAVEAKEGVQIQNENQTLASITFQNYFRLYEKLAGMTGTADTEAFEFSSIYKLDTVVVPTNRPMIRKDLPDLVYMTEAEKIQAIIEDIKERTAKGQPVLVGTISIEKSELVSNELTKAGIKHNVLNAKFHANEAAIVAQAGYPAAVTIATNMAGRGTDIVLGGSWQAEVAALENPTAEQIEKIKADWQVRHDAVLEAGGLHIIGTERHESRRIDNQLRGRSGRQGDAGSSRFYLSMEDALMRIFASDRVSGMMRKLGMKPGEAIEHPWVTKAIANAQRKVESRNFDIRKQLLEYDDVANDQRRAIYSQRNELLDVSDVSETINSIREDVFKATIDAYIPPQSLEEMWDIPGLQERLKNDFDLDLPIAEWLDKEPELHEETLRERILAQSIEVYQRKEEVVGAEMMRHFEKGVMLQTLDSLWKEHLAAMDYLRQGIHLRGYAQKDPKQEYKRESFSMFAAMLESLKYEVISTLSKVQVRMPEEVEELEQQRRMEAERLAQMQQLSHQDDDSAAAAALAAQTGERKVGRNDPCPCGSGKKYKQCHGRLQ
Entries with a potency or affinity are not part of this list.
quantity: Percent Effect
Please state the value followed by its unit.

Measured Percent Effect, Cc1cc(=O)n2ncnc2n1CC(O)c1ccccc1Cl (configuration not stated) : -0.278%

Form field Percent Effect, entry O=C(NCCCOCC1CCCO1)c1cccnc1N1CCCC1 (configuration not stated) : -2.67%

The recorded Percent Effect for Cn1c(Cn2ccnc2)nnc1C1CCN(Cc2cccnc2N)CC1 is -2.31%

response.value for Fc1cccc(Oc2ccc(CNCC3CNc4ccnn4C3)cn2)c1 (configuration not stated) (field: Percent Effect) = -2.95%

The compound identified as CN(CC1COc2ccccc2O1)C(=O)NCCCn1ccnc1 (configuration not stated) registered its Percent Effect at -1.25%

Please fill in: Percent Effect reported for O=C1N(c2ccc(Br)cc2)Cc2nc(=O)[nH]n21 = -6.3%

Per the records, this compound ( COCCNC(=O)[C@H]1C[C@@H]2CCN(c3nncs3)C[C@H]2O1 ) has Percent Effect equal to -0.719%

// CC(C)(C)c1ccc(C2(C(=O)NCCS(N)(=O)=O)CC2)cc1 : Percent Effect value = -3.83%

// field: Percent Effect; key: CC(C)CCN1CC2(CCCN(C(=O)c3cscn3)C2)CCC1=O (configuration not stated) ; value = -3.18%

For record CC(O)CN1CCN(C(=O)c2ccc(Cn3cccn3)cc2)CC1 (configuration not stated) the listed Percent Effect is -4.02%

So for CN(Cc1ccccc1F)C(=O)CS(=O)(=O)Cc1ccc(Cl)c(Cl)c1 , the logged Percent Effect turned out to be 0.269%

Recorded Percent Effect (compound CC(NCc1ccccc1Br)c1ccc2[nH]c(=O)[nH]c2c1 (configuration not stated) ): -1.71%

----------
Task for the reader: assign each of the following compounds its reported Percent Effect.
biological target: AMP-activated protein kinase, AMPK (Homo sapiens) (UniProt P54646+O43741+P54619+Q9UGJ0+Q9Y478+Q13131+Q9UGI9); assay: AMP-dependent Kinase enzyme assay. An in vitro enzyme assay that detects ADP turnover that is directly proportional to AMPK activity. This uses naive AMPK that is activated during the assay with MK-8722; type: functional; parameters: scale not given: direction of the effect not stated beside the values; conditions: 30 µM
# unit: % | format: bare number

Query c1cnc(NCc2noc3c2CN(C2CCOCC2)CC3)nc1 yields Percent Effect of -2.09

get_value(item= CCN(CC)C(C(=O)NCc1ccc(N2CCCC2)nc1)C(C)C (stereo unspecified) , readout=Percent Effect) returns -3.6

The recorded Percent Effect for entry CCC(CO)N(Cc1ccccn1)C(=O)c1ccc2c(c1)CCO2 (stereo unspecified) equals -10.8

Per the record, COc1ncccc1NC(=O)C1CC(=O)N(Cc2ccccn2)C1 (stereo unspecified) has Percent Effect of 4.85

So, CCn1cc(NC(=O)NCC(c2cccs2)N(C)C)cn1 (stereo unspecified) ? Its Percent Effect was -2.49

Per the record, CCC1=N[C@@]2(CC[C@@H]3CN(C(=O)NCC(C)C)C[C@@H]32)C(=O)N1CC(C)C has Percent Effect of 0.0094

Documented Percent Effect of CC(C)OCCOCc1cccc(NC(=O)NCc2ccncc2)c1 : -7.84

Value of measured Percent Effect for the entry COCCN1CCC(CNC(=O)C2(c3cc(C)cc(C)c3)CCC2)C1 (stereo unspecified) : -6.3

In plain terms, CN(C)CCN1CCOCC2(C1)CN(Cc1ccsc1)CCO2 (stereo unspecified) has a documented Percent Effect of 14.3

Lab book: Percent Effect of COc1ccc(C2CCCN2C(=O)NCCNc2ncccn2)cc1 (stereo unspecified) noted as -8.6

The value of Percent Effect measured for the compound Cc1nc(CNC(=O)Cn2nc(-c3ccc(F)cc3)oc2=O)cs1 turned out to be 10.4

----------
molecular target: Proteasome subunit beta (Trypanosoma cruzi); assay: Trypanosoma cruzi proteasome chymotrypsin-like activity (TcProtChymo) assay.; assay type: functional; design: scale not given: in the data most compounds retested in dose-response had high values; conditions: 9.37 µM
quantity: Percent Effect (%)
Form entry: value (%) — number only.

For O=C(CN1CCCC1Cn1cncn1)NCCc1c(F)cccc1F (centres undefined) the compound record lists Percent Effect as 7.36

compound Cc1ncc2c(n1)CN(Cc1noc(C3CC3)n1)CC2 , Percent Effect observed: 8.11

Reported Percent Effect ( CCOc1nnc(CNC2CCCN(c3ccc(C)nn3)C2)s1 (centres undefined) ) = 15.1

Measured Percent Effect of CCOC(=O)N1CCN(Cc2ccc(OCc3nccn3C)cc2)CC1 : 13.7

What the record says about CN(C)CCn1c(=O)oc2ccc(NC(=O)C3CCCO3)cc21 (centres undefined) : Percent Effect is 6.8

The measured Percent Effect associated with CC(C)c1nccn1C1CCCN(C(=O)c2cnc[nH]2)C1 (centres undefined) reads 10.1

The recorded Percent Effect for CNS(=O)(=O)Cc1ccc(CNC(=O)c2cccc(C)n2)cc1 is 5.57

// O=C(NCc1cncc2c1CCN(Cc1cccc(F)c1)C2)C1CC1 : Percent Effect value = 7.96

Kindly note the recorded Percent Effect for CCCn1nc2c(cc1=O)CN(Cc1cc(C)on1)CC2 , which is 17.8

The value of Percent Effect measured for the compound Cc1nc(O)c2nnn(C[C@H]3CCCN3C(=O)CCC3CCCC3)c2n1 turned out to be 2.5

Lab note: CS(=O)(=O)NC[C@H]1OC[C@@H]2CCN(Cc3ccc(F)cc3)C[C@@H]21 gave Percent Effect of 7.35

The compound listed as Cc1cc(CN2CCN(C(=O)c3sccc3C3CC3)CC2)on1 has a reported Percent Effect of 9.62

// Percent Effect value for CCNC(=O)N(C)C(c1cccc(F)c1)c1ccccn1 (centres undefined) : 9.46

Query Cc1ccc(CNC(=O)CN2C=Nc3ccccc3S2(=O)=O)s1 yields Percent Effect of 3.98

Percent Effect measured on Cn1cc(CCNC(=O)CCc2ccc3c(c2)OCO3)cn1 = 13.3

For COCCOc1ccc(NC(=O)C2CCCN(C(N)=O)C2)cn1 (centres undefined) the compound record lists Percent Effect as 5.82

Note to self: Percent Effect recorded for Cc1cc(C)n(CC(=O)N2CCC(NS(C)(=O)=O)CC2)n1 was 8.69

Documented Percent Effect of O=C(NCCNc1ncccn1)N1CCSCC1 : 7.39

// field: Percent Effect; key: CCN1CCC(NC(=O)CN2CCCC2Cn2nc(C)cc2C)CC1 (centres undefined) ; value = -0.54

----------
I'd appreciate it if you could supply Percent Effect values for the items below.
test system: Trypanosoma cruzi; assay: Trypanosoma cruzi phosphomannomutase and mannose-1-phosphate guanylyltransferase assay; format: functional; set-up: scale not given: direction of the effect not stated beside the values; details: 10 µM
The response must be a number in % with no trailing unit.

The reported value for COc1cccc(-n2c(C)cc(C(=O)NS(C)(=O)=O)c2C)c1 in terms of Percent Effect is -4.63

Recorded Percent Effect (compound CC(C)(C)c1nc(CN2CCCC2Cn2cccn2)no1 (stereo not drawn) ): 2.81

Just so you know, measured Percent Effect for CN(Cc1cnn(C)c1)C(=O)NCc1csc(Br)c1 came out at -8.08

// sample O=C(Nc1cnn(CCN2CCOCC2)c1)c1ccccn1 , its Percent Effect was 3.38

Reported Percent Effect of Cc1cc(=O)n2ncnc2n1CC(O)c1ccccc1Cl (stereo not drawn) : -6.52

Cc1cc(C)c(CNC(=O)NCc2ccc3c(c2)CCC3)c(=O)[nH]1 has a reported Percent Effect of -3.38

The compound CCc1cc(=O)[nH]c2nnc(SCC(=O)OC)n12 showed Percent Effect equal to 3.72

For reference, reported Percent Effect for CCN(CC1CN(Cc2ncc(C)o2)CCO1)c1cccnn1 (stereo not drawn) stands at 5.16

response.value for CCc1cnc(CN(C(C)=O)C2CCN(CCc3cnn(C)c3)C2)o1 (stereo not drawn) (field: Percent Effect) = -1.21

get_value(item= O=C(NCCNc1ccc(C(F)(F)F)cn1)c1cncc(Br)c1 , readout=Percent Effect) returns -4.8

Noted for NC(=O)C1CCCN(C(=O)c2cnc3c(cnn3C3CCCC3)c2)C1 (stereo not drawn) : its Percent Effect reads 12.8

Form: compound = CCc1nccn1C1CCCN(C(=O)CCc2nccs2)C1 (stereo not drawn) ; Percent Effect = -0.66

What the record says about Cc1cc(NC(=O)c2nc(N3CCCC3)ncc2Cl)nc(C(C)C)n1 : Percent Effect is -8.79

The compound listed as CC(=O)N1CCN([C@@H]2CC[C@@H](NC(=O)c3cncc(C)c3)[C@H]2O)CC1 shows Percent Effect equal to -3.75

Consider Cn1cc(C2CCCN2C(=O)c2ccc(Br)o2)cn1 (stereo not drawn) . Its measured Percent Effect is -3.64

Sample CCCc1nnsc1C(=O)NCC1CCN(c2ccccn2)CC1 ; Percent Effect observed: 4.5

Note to self: Percent Effect recorded for COc1ccc(C(=O)N(Cc2cnn(C)c2)C(C)C)cc1Br was 6.44

Looking up Cn1ccc(C(=O)N2CCCC(n3cncn3)C2)cc1=O (stereo not drawn) , I found its Percent Effect recorded as 5.97
